Target: Voltage-gated L-type calcium channel (Rattus norvegicus, UniProt P22002+Q02485+P27732)
Assay: Displacement of [3H]nitrendipine from calcium channel receptor
Assay type: protein assay
Result Type: IC50 (nM)
A number alone suffices; assume nM.

// solved cases for IC50 follow
Could you tell me which IC50 is on file for COc1ccc(C2Sc3ccccc3-n3c(CN(C)C)ccc32)c(OC)c1 (stereo unspecified) ?
150

Could you tell me which IC50 is on file for COc1ccc(C2Sc3ccccc3-n3c(CNc4ccc(F)cc4)ccc32)cc1 (stereo unspecified) ?
5870

Could you tell me which IC50 is on file for CCC(C)NCc1ccc2n1-c1ccccc1SC2c1ccc(OC)cc1OC (stereo unspecified) ?
14.8

Could you tell me which IC50 is on file for COc1ccc(C2Sc3ccccc3-n3c(CN(C)CCc4ccc(OC)c(OC)c4)ccc32)cc1.Cl (stereo unspecified) ?
53

Could you tell me which IC50 is on file for COc1ccc(C2Sc3ccccc3-n3c(CNCCc4ccc(OC)c(OC)c4)ccc32)cc1 (stereo unspecified) ?
534

Continuing:
Could you tell me which IC50 is on file for CN(C)Cc1ccc2n1-c1ccccc1SC2c1ccccc1 (stereo unspecified) ?
315
